# Tested on: LU-65 (Non-Small Cell Lung Carcinoma);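 further: after 72 h of two-drug dosing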
# assay_notes: Bliss excess, mean over the matrix (fraction); higher = more synergy
What Bliss excess was measured for each of the following?

CC1(C)CCC(CN2CCN(c3ccc(C(=O)NS(=O)(=O)c4ccc(NCC5CCOCC5)c([N+](=O)[O-])c4)c(Oc4cnc5[nH]ccc5c4)c3)CC2)=C(c2ccc(Cl)cc2)C1 [Venetoclax] + CS(=O)(=O)CCNCc1ccc(-c2ccc3ncnc(Nc4ccc(OCc5cccc(F)c5)c(Cl)c4)c3c2)o1 [Lapatinib] (first compound max 1 µM, 7x7, partner max 10 µM) ... 0.0159

Would you kindly look at the next entry?
Exercise: Missing value: Bliss excess, LU-65 (Non-Small Cell Lung Carcinoma), entry O=C(c1cc(Cc2n[nH]c(=O)c3ccccc23)ccc1F)N1CCN(C(=O)C2CC2)CC1 [Olaparib] + COc1nnc2ccc(N3CCC(c4ccc(OCCN5CCN(C)C(=O)[C@H]5C)cc4)CC3)nn12 [AZD5153] (first compound max 10 µM, 7x7, partner max 1 µM) . Fill in?
Solution: -0.0601
